- METHOD SUMMARY: yeast display, Sf9 membrane polyspecificity reagent, FACS + sequencing; frameworks hold sequencing errors
TEST READOUT: polyreactivity (PSR sort gate)

Some sequences with recorded polyreactivity (PSR sort gate):
QVQLVESGGGLDQARGSLRLSCAASGLTFHRYAMGWYRQANGKERELVAAINYSGGRTYYADSVKGRFTISRDNAKNTVYLQMNSLKPEDTAVYYCNAVRYQKIFDYWGQGTQVTVSS | high polyreactivity
QVQLVESGGGLVQAGGSLRLSCAASGSTFTTYPMGWYRQAPGKERELVAAISTNGGRTFYADSVKGRFTISGDNAKKTVYLQMNSLKPEDTAVYYCAAEYGLYAPGYYYWGQGTQVTVSS | low polyreactivity
QVQLVESGGGLVQAGGSLRLSCAASGRIFSTYVMGWYRQAPGKERELVAAITWSGGSTYYADSVKGRFTISRDTAQNTVYLQMNTLKPEDTAVYYCAADEIYGYDYWGQGTQVTVSS | high polyreactivity
QVQLVESGGGIVQAGGRLRLSCAASGMIFYFYALGWYRPAPGKERELVAAITSGARTYYADSVKGRFTISRDNAKNTVYLQINSLKPEDTAVYYCAADVKRDRVWGGDYWGQGTQVTVSS | low polyreactivity
QVQLVESGGGLVQAGGSLRLSCAASGRIFSSYTMGWYRQAPGKERELVATITLRGGRTYYADSVKGRFTISRDNAKNTVYLQMNSLKPEDTAVYYCAATYLTYYHRFNYWGQGTQVTVSS | high polyreactivity
QVQLVESGGGLVQAGGSLRLSCAASGSIFDSYVMGWYRQAPGKERELVAAITYSGGSTYADSVKGRFTISRDNAKNTVYLQMNSLKPEDTAVYYCAADLSGGSRYDYWGQGTQVTVSS | low polyreactivity

## Task Quick check: polyreactivity (PSR sort gate) of "QVQLVESGGGLDQEGGSLRLSCAASGRIFARNAMGWYRQAPGKERELVAAIRNSDGSTYYADSVKGRFTISRDNAKNTVYLQMNSLKPEDTAVYYCAARSGSYRKYGYWGQGTQVTLSS" ?
## Result high polyreactivity

## Task Quick check: polyreactivity (PSR sort gate) of "QVKLVESGGGLVQAGGSLRISSAASGSTFYYYAMGWYRQAPGKESEFVASISSRGTSKYYADSVKGRFTISRDNAKNTVYLQMNSLKPEDTAVYYCAARGWCPTRAYDYWGQGTQVTVSS" ?
## Result high polyreactivity

---

- METHOD SUMMARY: yeast display, Sf9 membrane polyspecificity reagent, FACS + sequencing; frameworks hold sequencing errors
TEST READOUT: polyreactivity (PSR sort gate)

QVQLVESAGGLVQAGGSLRLSCAASGSIFYEYAMGWYRQAPGKERELVATITWTDDSTYYADSVKGRFTISRDNAKNTVYLQMNSLKPEDTAVYYCNADLWPGNHDGYWGQGTQVTVSS | low polyreactivity
QVQLVESGGGLVQAGGSLRLSCAASGFTFDVYTMGWYRQAPGKEREFVAAISGSGGSTYYADSVKGRFTISRDNAKNTVYLQMNSLKPEDTAVYYCNAGLSRVSHRHLSHSLQGYDYWGQGTQVTVSS | low polyreactivity

---

- METHOD SUMMARY: yeast display, Sf9 membrane polyspecificity reagent, FACS + sequencing; frameworks hold sequencing errors
TEST READOUT: polyreactivity (PSR sort gate)

Some sequences with recorded polyreactivity (PSR sort gate):
QVQLVESGGGLVQAGGSLRLSCAASGFIFDWNTMGWYRQAPGKERELVAAITESSGSTYYADSVKGRFTISRDNAKNTVYLQMNSLKPEDTAVYYCAADLDVYVSIGSRFHFDYWGQGTQVTVSS | low polyreactivity
QVQLVDSGGGLVQAGGSLRLSCAASGFTFRYYAMGWYRKAPGNERELVAGISWSGSRTYYADSVKGRFTISRDNAKNTVYLQMNSLKPEDTAVYFCAKVNSYGPVPDRYDYWGQGTQVTVSS | high polyreactivity
QVQLVESGGGLVQAGGSLRLSCAASGFTSSAYAMGWYRQEPGKESELVAVISRSGGRTYYADSVKGRFTISRDNAKNTVYLQMNSLKPEDTADYYCAAEYGVYNIHFPGYDYWGQGTQVTVSS | high polyreactivity
QVQLVESGGGLVQAGGSLRLSCAASGRIFYPNAMGWYRQAPGKERELVAAITWRGGRTYYADSVKGRFTISRDNAKNTVYLQMNSLKPEDTAVYYCNAVAPGKYNHWGQGTQVTVSS | high polyreactivity
QVQLVESGGGLVQAGGSLRLSCAASGRLFPYYDMGWYRQAPGKERELVAAITGNGGSTYYADSVKGRFTISRDNAKNTVYLQMNSLKPEDTAVYYCAVDPYYYGEDYWGQGTQVTVSS | low polyreactivity
QVQLVESGGGLVEAGGSLRLSCAATGRTIRAYAMGWYRPEPGKERELVASISSGGSTKYADSVKGRFTISRDNAKNTVYLQMNSLKPEDTAVYFCAADRLLYGVDYWGQGTEVTVSS | low polyreactivity

## Task Quick check: polyreactivity (PSR sort gate) of "QVQLVESGGGLVQAGGSLRLSCAASGRIFAFYAMGWYRQAPGKERELVAAITSGGSTKYADSVNGRFSISRDNAKNTVYLLMNSMKPEDTAVYYCAARYRWQFRSQYDYWGQGTQVTVSS" ?
## Result high polyreactivity

## Task Quick check: polyreactivity (PSR sort gate) of "QVQLVESGGGLVQAGGSLRLSCAASGSIFFLYAMGWYRQAPGKERELVAAISRDGRTNYADSVKGRFTISRDNAKNTVYLQMNSLKPEDTAVYYCAKDGNHPGAVVYGYWGQRTQVTVSS" ?
## Result low polyreactivity

## Task Quick check: polyreactivity (PSR sort gate) of "QVQLVESGGGLVQAGGSLRLSCAASGNIFESYGMGWYRQAPGKERELVATINTSSGSTYYADSVKGRFTISRDNAKNTVYLQMNSLKPEDTAVSSCAGEWYPYAWGYGYWGQGTQVTVSS" ?
## Result low polyreactivity

## Task Quick check: polyreactivity (PSR sort gate) of "QVQLVESGGGLVQAGGSLRLSCAASGFTFYVNAMGWYRQAPGKERELVAAISSSGTRTYYADSVKGRFTISRDNAKNTVYLQMNSLKPEDTAVYYCAARGQAYSGDRMYYWGQGTLVTVSS" ?
## Result high polyreactivity

## Task Quick check: polyreactivity (PSR sort gate) of "QVQLVESGGGLVQAGGSLRLSCAASGSTFVWNAMGWYRQAPGKERELVAAITSSGGSTYYADSVKGRFTISRDNAKNTVYLQMNSLKPEDTAVYYCAATGVNYRGLLGVAWGNNYWGQGTQVTVSS" ?
## Result low polyreactivity

---

- METHOD SUMMARY: yeast display, Sf9 membrane polyspecificity reagent, FACS + sequencing; frameworks hold sequencing errors
TEST READOUT: polyreactivity (PSR sort gate)

Some sequences with recorded polyreactivity (PSR sort gate):
QVQLLESGGGLVQAGGSLRLTCAASGLTFSNYAMGWYRQAPGKERELVADIRSGGNTNYADSVKGRFTISRDNAKNTVYLQMNSLKPEDTAVYYCATDGYRIDVYHPDYRYDYWGQGTQVTVSS | low polyreactivity
QVQLVESAGGLVQAGGRLRLSCAASGFTFRYYAMGWYRQAPGKERELVATITPGGSTNYADSVKGRFTISRDNAKNTVYLEMNSLKPEDTAVYYCAASLYRVIAFGYWGQGTQVTVSS | high polyreactivity
QVQLVESGGGLVQAGGSLRLSCAASGGILRQNTMGWYRQAPGKERELVAAISSSGGRTYYADSVKGRFTISRDNAKNTVYLQMNSLKPEDTAVYYCAAEVRLKYRGWTGDYWGQGTQVTVSS | high polyreactivity
QVQLVESGGGLVQAGGSLRITCAASGSIFGTNAMGWYRQAPGKERELVAAIDGGSTTYYADCVKGRFTISRDNAKNTVYLQMNSLKPEDTAVYYCAADGTRYLNYEGYAGYEYWGQGTQETVSS | low polyreactivity

Shift focus to the following entry.
## Task Quick check: polyreactivity (PSR sort gate) of "QVQLQESGDGLVQAVGSLRLSCAASGYISGYYYMGWYRQAPGKERELVAGIDAFGSSTNYADCVKGRLTISRDNAKNTVYLQMNSPKPEDTAVYYCAAEYDDWDYHWYWGQGTQVTVSS" ?
## Result low polyreactivity

---

- METHOD SUMMARY: yeast display, Sf9 membrane polyspecificity reagent, FACS + sequencing; frameworks hold sequencing errors
TEST READOUT: polyreactivity (PSR sort gate)

QVQLVESGGGLVQAGGSLRLSCAASGRTFVGNAMGWYRQAPGKEREFVAAITSRTGSTYYADSVKGRFTISRDNAKYTVYLQMNSLKPEDTAVYYCATPYYQNVYSRKAYNYWGQGTQVTVSS | high polyreactivity
QVQLVESGGGLVQAGGSLRLSCAASGIIFWRYAMGWYRQAPGKERELVASISWSGGSTSYADSVKGRFTISRDNAKNTVYLQMNSLKPEDTAVYYCAAVFYYRRRYYYWGQGTQVTVSS | high polyreactivity
